Tested on: M14
test.summary: NCI tumour cell line growth inhibition, 48 h
Calls of active or inactive are those of the source. Rule as the data show it: active = GI50 up to about 1.1 µM and inactive = higher.
I would appreciate it if you answered using one of these outcomes: TRUE for active, FALSE for inactive

Inquiry: Dear all, I need the recorded test outcome for CNC(=O)C1(C#N)C(c2ccccc2)C(C#N)(C(=O)NC)C1c1ccccc1 (centres undefined) , thank you.
Reply text: FALSE

Inquiry: Test call, this molecule: O=[N+]([O-])C(=C/c1cccs1)/C(=C\c1cccs1)[N+](=O)[O-]
Reply text: TRUE

Inquiry: Which outcome was assigned to c1ccc(NCCSc2nc3ccccc3s2)cc1 in this test?
Reply text: FALSE

Inquiry: Returns: the outcome recorded for O=[N+]([O-])c1cccc(/C=N/C23CC4CC(CC(C4)C2)C3)c1 in this assay.
Reply text: FALSE

Inquiry: So what was the verdict on CCOC(=O)C(NC(=O)CC)(N1CCN(c2cc3c(cc2F)c(=O)c(C(=O)O)cn3C2CC2)CC1)C(F)(F)F (centres undefined) in this test?
Reply text: FALSE

Inquiry: What is the recorded call for this molecule in the test? C=CCN1C(=O)/C(=C/c2ccc(Cl)cc2)N=C1SC1OC(COC(C)=O)C(OC(C)=O)C(OC(C)=O)C1OC(C)=O (centres undefined)
Reply text: FALSE

Inquiry: Just curious, what result did Cn1c(N=P(c2ccccc2)(c2ccccc2)c2ccccc2)c([N+](=O)[O-])c(=O)n(C)c1=O get here?
Reply text: FALSE

Inquiry: Just curious, what result did COc1ccc(NC(=O)CC2S/C(=N\c3ccccc3C)NC2=O)c([N+](=O)[O-])c1 (centres undefined) get here?
Reply text: FALSE

Inquiry: Fill in: this test's call for CCSC1=CC2(O)N(CCc3ccc(OC)c(OC)c3)C(=O)CC2(C(=O)OC)CC1=O (centres undefined) is ___
Reply text: FALSE

###

Tested on: 786-0
test.summary: NCI tumour cell line growth inhibition, 48 h
Active and inactive are the calls of the source. Rule as the data show it: active = GI50 up to about 1.1 µM and inactive = higher.
Please provide measured GI50 for the entries that follow.

The reported value for COc1cc2c(cc1OC)CCc1cc(OC)c(OC)cc1CC2 in terms of GI50 is > 100 µM (inactive)

Briefly, GI50 measured for CC1(C)OC(=O)CC12CCN(Cc1ccccc1)CC2 : > 100 µM (inactive)

For reference, reported GI50 for CN(C)C1C(CO)OC(n2cnc3c(N)ncnc32)C1O (stereo unspecified) stands at > 100 µM (inactive)

Item: CC(=O)Oc1ccc(/C=C/C(=O)NCC(NC(=O)/C=C/c2ccc(OC(C)=O)c(OC(C)=O)c2)C(=O)O)cc1OC(C)=O (stereo unspecified) | GI50: > 100 µM (inactive)

Field GI50 (entry S=C(N1CCN(c2cccc(Cl)c2)CC1)N1CCN(c2cccc(Cl)c2)CC1 ) reads 33.3 µM (inactive)

The reported GI50 of the compound Cc1nc2ccccc2[s+]c1-c1cnc(NC#N)nc1C(=O)Nc1cccc(Cl)c1 was > 100 µM (inactive)

// GI50 value for CCCCN1C(=O)N(c2ccc(OCC)cc2)C2N(CCCC)C1C(C)(C)C2(C)C (stereo unspecified) : 21.5 µM (inactive)

Lookup result for C(=N\Nc1ccc(-c2nc3ccccc3[nH]2)cc1)/c1c(-c2ccc(Cc3ccccc3)cc2)[nH]c2ccccc12 ; measured GI50: 3.3 µM (inactive)

Item: O=C1/C(=C\Oc2ccc(F)cc2)N2CCC1CC2 | GI50: > 100 µM (inactive)

# GI50 of C/C(CC(=O)Nc1ccccc1)=N\NC(N)=S = > 100 µM (inactive)

Lookup result for O=c1c2ccccc2[nH]c(=S)n1-c1ccc(Br)cc1 ; measured GI50: 80.7 µM (inactive)

###

Exercise: state measured GI50 for each of the compounds provided.
Tested on: SK-MEL-28
test.summary: NCI tumour cell line growth inhibition, 48 h
The source made the active and inactive calls. No stated cut-off is given here; in the data, active = GI50 up to about 1.1 µM and inactive = higher.

// GI50 lookup, compound = O=C(O)Cc1ccc([N+](=O)[O-])cc1[N+](=O)[O-] , result: > 100 µM (inactive)

So for C/C(CC(=O)NC1=CC=C(NC(=O)C/C(C)=N\Nc2ccccc2)CC1)=N/Nc1ccccc1 , the logged GI50 turned out to be > 100 µM (inactive)

Memo: CCOC(=O)c1c(N)nn2c1cc1cccccc12 , reported GI50: 29.9 µM (inactive)

The compound identified as Cc1cccc(NC(=O)CC(=O)N2N=C(N3c4ccccc4Sc4ccccc43)CC2c2ccccc2)c1 (configuration not stated) registered its GI50 at > 100 µM (inactive)

What the record says about CCc1cccc(C)c1NC(=O)CCc1n[nH]c(=S)o1 : GI50 is > 100 µM (inactive)

Looking up CCCCNN , I see its GI50 listed as > 100 µM (inactive)

Record summary for COc1ccc(NC(=O)CC2S/C(=N\c3ccccc3C)NC2=O)c([N+](=O)[O-])c1 (configuration not stated) : reported GI50 = > 100 µM (inactive)

Form field GI50, entry C=CCNC(=S)N1CC(C)C(=O)Nc2ccccc21 (configuration not stated) : > 100 µM (inactive)

get_value(item= Cc1cc(C)nc(NS(=O)(=O)c2ccc(Nc3c4ccccc4nc4c(C(=O)NCCN(C)C)cccc34)cc2)n1 , readout=GI50) returns 5.97 µM (inactive)

So for CC1(C)CC(=O)c2c(nc3c(ccc4ccccc43)c2-c2ccc(NC(=O)CCCC(=O)Nc3ccc(-c4c5c(nc6c4ccc4ccccc46)CC(C)(C)CC5=O)cc3)cc2)C1 , the logged GI50 turned out to be > 100 µM (inactive)

Measured GI50 of Nc1nc2c(c(=O)[n-]1)[n+](CCO)cn2C1OC(CO)C(O)C1O (configuration not stated) : > 100 µM (inactive)

Item: CCOc1c(OC)cc(-c2nc3n(n2)C(=O)C(CC)S3)cc1OC (configuration not stated) | GI50: > 10 µM (inactive)

###

Test system: HOP-62
test.summary: NCI tumour cell line growth inhibition, 48 h
Activity calls are given as the source filed them. No stated cut-off is given here; in the data, active = GI50 up to about 1.1 µM and inactive = higher.
Give measured GI50 for each item. Keep answers brief.

GET /value?item= CCSC1=CC2(O)N(CCc3ccc(OC)c(OC)c3)C(=O)CC2(C(=O)OC)CC1=O (stereo not drawn) &field=GI50 returns 18.2 µM (inactive)

Entry Brc1ccccc1/C=N\C12CC3CC(CC(C3)C1)C2 , GI50 reported as > 81.8 µM (inactive)

The compound O=[N+]([O-])/C(C(Cl)=C(Cl)Cl)=C(\Nc1ccccc1)n1nnc2ccccc21 showed GI50 equal to 30.6 µM (inactive)

Please fill in: GI50 reported for CC(C)c1ccccc1NC(=O)CCc1n[nH]c(=S)o1 = > 100 µM (inactive)

// recorded GI50 for Clc1nc(-[n+]2ccc(-c3ccncc3)cc2)nc(Nc2ccccc2)c1Cl : > 100 µM (inactive)

For CSc1nc(C)cc(N(C)c2ccccc2)n1 the compound record lists GI50 as 45.2 µM (inactive)

Entry under test: CCOC(=O)c1c(CN2CCCC2)n(-c2ccccc2)c2cc(Br)c(OC)cc12 . Its GI50 was 8.75 µM (inactive)

Looking up CCOC(=O)/C(=N\Nc1ccc(-n2c(C)nc3ccccc3c2=O)cc1)C(C)=O , I see its GI50 listed as 40.2 µM (inactive)

Form: compound = COC(=O)C(=O)C(CC(=O)Nc1c(C)cccc1C)C(=O)OC (stereo not drawn) ; GI50 = > 100 µM (inactive)

Form: compound = C[C@H](N[C@H]1CCC[C@]1(O)C#Cc1ccc2c(c1)OCO2)c1ccccc1 ; GI50 = > 25 µM (inactive)

Item: O=C(Cc1nc2ccccc2s1)C(=O)Nc1ccc(Cl)cc1 | GI50: > 100 µM (inactive)

The compound CCOC(=O)c1c(N)nn2c1cc1cccccc12 showed GI50 equal to 29.8 µM (inactive)

// COc1ccc2c[n+](C)c3c4cc(OC)c(OC)cc4ccc3c2c1 : GI50 value = 8.02 µM (inactive)

Per the records, this compound ( C[n+]1ccc(Nc2ccc(NC(=O)c3ccc(Nc4cc[n+](C)c5ccc([N+](=O)[O-])cc45)cc3[N+](=O)[O-])cc2)cc1 ) has GI50 equal to 47.1 µM (inactive)

GET /value?item= COc1cc(/C=C/c2nc(NC(=S)Nc3ccccc3)nnc2C)cc(OC)c1OC &field=GI50 returns 35.2 µM (inactive)

Form: compound = CC(C)[C@H]1NC(=O)[C@H]2N=C(O[C@@H]2C)[C@@H]2CCCN2C(=O)[C@H](Cc2ccccc2)NC(=O)[C@@H]2CSC(=N2)[C@@H](Cc2ccccc2)NC(=O)[C@@H]2CSC1=N2 ; GI50 = > 100 µM (inactive)

// field: GI50; key: O=C1NC2OC(CO)C(O)C(O1)C2O (stereo not drawn) ; value = > 100 µM (inactive)

Note to self: GI50 recorded for CCOC(=O)N1N=NC2C3OC(C[C@@]3(C#N)OC(C)=O)[C@H]21 (stereo partly drawn) was > 100 µM (inactive)
